The measured values listed here are drawn from PubChem BioAssay AID1159580.

Assay: chemical genetic growth profiling, strain panel (AID 1159580);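 note: tested at 20 µM; growth read once vehicle control cultures reached saturation at 30 °C; lower values mean less growth of the strain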
Details: S. cerevisiae deletion strains, growth OD, locus YNR030W, strain Alg12, stronger effect = lower value
Among all 5,500 compounds or so, about 2,000 (36%) were called active. Another 18% or so got no clear call; they are omitted. This is one part of the list.
Would you mind sorting the entries by normalized growth according to these classes? bottom range = under 0.9, center range = from 0.9 up to 1, top range = 1 and over

• O=C(Nc1ccc(Cl)cc1Cl)c1cnccn1 = center range
• COC(=O)c1ccc(S(=O)(=O)NCc2ccccc2)n1C = top range
• N/C(=N\OC(=O)c1ccno1)c1ccc(C(F)(F)F)cc1 = center range
• CCOC(=O)c1c(C)n(-c2ccccc2)c2ccc(O)cc12 = center range
• Cc1onc(-c2ccccc2Cl)c1C(=O)Nc1ccc2c(c1)OCO2 = top range
• Cc1cccc2nc(-c3ccccc3)oc(=O)c12 = center range
• Cc1ccc(CSC(=N)N)cc1 = bottom range
• O=C1CC(c2ccccc2)=NO1 = bottom range
• COC(=O)c1ccc(C#Cc2ccccc2)o1 = bottom range
• O=S(=O)(c1cc(Br)c(Br)s1)N1CCCCC1 = top range
• CCOC(=O)c1c(-c2ccc(F)cc2)csc1N = bottom range
• CCOC(=O)CCc1cc(N=Cc2cc(Cl)cc(Cl)c2O)c(O)c(N=Cc2cc(Cl)cc(Cl)c2O)c1 = bottom range
